Molecular target: T1, recombinant human LAG3 Fc Chimera Protein (R&D Systems, 2319-L3) (human, UniProt P18627 23-450)
T1 construct: Bought reagent
T1 sequence (looked up): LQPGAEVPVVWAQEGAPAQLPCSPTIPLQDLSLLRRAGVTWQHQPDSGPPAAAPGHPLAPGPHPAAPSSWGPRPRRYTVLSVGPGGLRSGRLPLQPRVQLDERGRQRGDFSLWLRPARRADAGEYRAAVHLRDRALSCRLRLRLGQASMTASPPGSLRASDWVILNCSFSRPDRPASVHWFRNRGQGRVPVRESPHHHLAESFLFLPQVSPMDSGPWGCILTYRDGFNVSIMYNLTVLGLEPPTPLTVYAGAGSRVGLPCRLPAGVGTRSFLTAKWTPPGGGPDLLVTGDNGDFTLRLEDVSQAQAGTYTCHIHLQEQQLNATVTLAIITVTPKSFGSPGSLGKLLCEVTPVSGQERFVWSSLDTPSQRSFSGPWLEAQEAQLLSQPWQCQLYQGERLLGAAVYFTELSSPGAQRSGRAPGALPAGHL
Test: SPR (Biacore), aVH-Fc captured by anti-human Fc, human LAG-3 Fc chimera as analyte, 25 C
attribute measured: koff (s⁻¹)
Report as a plain number; the unit s⁻¹ is understood.

• bivalent P10D1 aVH-Fc (Fc fusion) EVQLVESGGGLVQPGGSLRLSCAASGFSIKDTCIAWVRRAPGKGTELVAEICEDIGYTRYADSVKGRFTISADTSKNTAYLQMNSLRAEDTAVYYCAAKEAGVGFDYWGQGTTVTVSSGGGGSGGGGSDKTHTCPPCPAPEAAGGPSVFLFPPKPKDTLMISRTPEVTCVVVDVSHEDPEVKFNWYVDGVEVHNAKTKPREEQYNSTYRVVSVLTVLHQDWLNGKEYKCKVSNKALGAPIEKTISKAKGQPREPQVYTLPPSRDELTKNQVSLTCLVKGFYPSDIAVEWESNGQPENNYKTTPPVLDSDGSFFLYSKLTVDKSRWQQGNVFSCSVMHEALHNHYTQKSLSLSPGK = 0.00011

Tell me koff reported for bivalent 21B11 aVH-Fc (Fc fusion) EVQLVESGGGLVQPGGSLRLSCAASGFNIKDTCIGWVRRAPGKGTELVAEICQDIGYTRYADSVKGRFTISADTSKNTAYLQMNSLRAEDTAVYYCAADESVDNFKYWGQGTTVTVSSGGGGSGGGGSDKTHTCPPCPAPEAAGGPSVFLFPPKPKDTLMISRTPEVTCVVVDVSHEDPEVKFNWYVDGVEVHNAKTKPREEQYNSTYRVVSVLTVLHQDWLNGKEYKCKVSNKALGAPIEKTISKAKGQPREPQVYTLPPSRDELTKNQVSLTCLVKGFYPSDIAVEWESNGQPENNYKTTPPVLDSDGSFFLYSKLTVDKSRWQQGNVFSCSVMHEALHNHYTQKSLSLSPGK 1.8e-05
